System: PPARg homodimer (NR concentration 180 nM)
measurementNotes: PBM binding z-score (relative to random genomic background probes); higher = stronger binding; sequences stand for … in GC…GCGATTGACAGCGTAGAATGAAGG
# Lookup of reported PBM binding z-score keyed by entry
Answer field: number only, no words.

sequenceEntry: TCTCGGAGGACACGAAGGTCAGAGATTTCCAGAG
PBM binding z-score: 1.21
//
sequenceEntry: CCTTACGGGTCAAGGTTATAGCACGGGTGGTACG
PBM binding z-score: 1.58

Q: Fill blank: measured PBM binding z-score of the sequence "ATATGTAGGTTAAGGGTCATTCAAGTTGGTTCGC" is ____.
A: 3.15

Q: Fill blank: measured PBM binding z-score of the sequence "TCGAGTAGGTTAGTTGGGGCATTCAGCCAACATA" is ____.
A: 0.105

---

# Lookup of reported PBM binding z-score keyed by entry
Test system: PPARg:RXRa (NR concentration 180 nM, RXRa partner concentration 90 nM)
measurementNotes: PBM binding z-score (relative to random genomic background probes); higher = stronger binding; sequences stand for … in GC…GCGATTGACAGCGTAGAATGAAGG
Answer field: number only, no words.

Worked cases, PBM binding z-score given:
sequenceEntry: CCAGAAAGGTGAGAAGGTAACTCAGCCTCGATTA
measurementKind: PBM binding z-score
measuredResult: 1.02
--
sequenceEntry: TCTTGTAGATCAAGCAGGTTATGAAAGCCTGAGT
measurementKind: PBM binding z-score
measuredResult: -0.162
--
sequenceEntry: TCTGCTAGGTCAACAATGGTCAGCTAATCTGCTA
measurementKind: PBM binding z-score
measuredResult: 2.13
--
sequenceEntry: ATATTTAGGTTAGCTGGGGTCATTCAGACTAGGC
measurementKind: PBM binding z-score
measuredResult: 4.2
--
sequenceEntry: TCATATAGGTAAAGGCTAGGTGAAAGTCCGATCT
measurementKind: PBM binding z-score
measuredResult: 1.18
--
sequenceEntry: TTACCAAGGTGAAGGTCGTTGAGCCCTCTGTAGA
measurementKind: PBM binding z-score
measuredResult: 2.83

Q: Fill blank: measured PBM binding z-score of the sequence "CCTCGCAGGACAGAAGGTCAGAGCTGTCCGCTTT" is ____.
A: -0.29

Q: Fill blank: measured PBM binding z-score of the sequence "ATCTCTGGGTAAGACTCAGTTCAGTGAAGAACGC" is ____.
A: 0.0592

Q: Fill blank: measured PBM binding z-score of the sequence "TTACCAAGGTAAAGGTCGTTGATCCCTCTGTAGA" is ____.
A: 6.84

Q: Fill blank: measured PBM binding z-score of the sequence "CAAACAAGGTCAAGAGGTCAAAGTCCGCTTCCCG" is ____.
A: 8.71

Q: Fill blank: measured PBM binding z-score of the sequence "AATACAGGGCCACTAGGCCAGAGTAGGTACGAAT" is ____.
A: 1.13

Q: Fill blank: measured PBM binding z-score of the sequence "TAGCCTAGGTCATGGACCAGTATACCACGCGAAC" is ____.
A: 3.5

Q: Fill blank: measured PBM binding z-score of the sequence "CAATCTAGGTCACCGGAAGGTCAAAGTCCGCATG" is ____.
A: 10

---

Tested on: RARb homodimer (NR concentration 270 nM)
measurementNotes: PBM binding z-score (relative to random genomic background probes); higher = stronger binding; sequences stand for … in GC…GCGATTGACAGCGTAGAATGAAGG
measurementKind: PBM binding z-score

Worked cases, PBM binding z-score given:
sequenceEntry: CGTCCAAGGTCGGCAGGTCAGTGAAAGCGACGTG
PBM binding z-score: 3.1

sequenceEntry: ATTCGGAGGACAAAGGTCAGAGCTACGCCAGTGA
PBM binding z-score: 4.59

sequenceEntry: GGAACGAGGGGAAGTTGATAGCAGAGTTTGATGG
PBM binding z-score: 0.255

Q: Fill blank: measured PBM binding z-score of the sequence "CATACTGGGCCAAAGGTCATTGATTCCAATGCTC" is ____.
A: 4.79

Q: Fill blank: measured PBM binding z-score of the sequence "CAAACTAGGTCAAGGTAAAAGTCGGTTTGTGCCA" is ____.
A: 3.47

Q: Fill blank: measured PBM binding z-score of the sequence "CCTAGTTGGTCACGAGGTCACACACCGGATATGA" is ____.
A: 4.65

Q: Fill blank: measured PBM binding z-score of the sequence "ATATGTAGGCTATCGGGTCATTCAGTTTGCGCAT" is ____.
A: 2.23

Q: Fill blank: measured PBM binding z-score of the sequence "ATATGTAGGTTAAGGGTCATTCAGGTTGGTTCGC" is ____.
A: 4.16

Q: Fill blank: measured PBM binding z-score of the sequence "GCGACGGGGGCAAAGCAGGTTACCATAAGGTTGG" is ____.
A: 2.24

Q: Fill blank: measured PBM binding z-score of the sequence "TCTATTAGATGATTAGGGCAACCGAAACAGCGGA" is ____.
A: 0.19

Q: Fill blank: measured PBM binding z-score of the sequence "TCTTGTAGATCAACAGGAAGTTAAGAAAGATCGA" is ____.
A: -0.828

Q: Fill blank: measured PBM binding z-score of the sequence "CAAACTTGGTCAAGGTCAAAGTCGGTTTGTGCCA" is ____.
A: 4.26

Q: Fill blank: measured PBM binding z-score of the sequence "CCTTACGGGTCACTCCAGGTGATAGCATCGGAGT" is ____.
A: 2.96

Q: Fill blank: measured PBM binding z-score of the sequence "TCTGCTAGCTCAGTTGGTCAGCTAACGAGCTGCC" is ____.
A: -1.04

Q: Fill blank: measured PBM binding z-score of the sequence "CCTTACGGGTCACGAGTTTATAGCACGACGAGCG" is ____.
A: 3.38

Q: Fill blank: measured PBM binding z-score of the sequence "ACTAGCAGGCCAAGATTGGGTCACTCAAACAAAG" is ____.
A: 1.97

Q: Fill blank: measured PBM binding z-score of the sequence "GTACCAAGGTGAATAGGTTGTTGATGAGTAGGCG" is ____.
A: 0.824
